- TARGET OR SYSTEM: T1, SARS-CoV-2 spike on intact virus (SARS-CoV-2/human/AUS/VIC01/2020) (SARS-CoV-2, isolate human/AUS/VIC01/2020)
- T1 construct: also called intact SARS-CoV-2; virions; source: virus grown in Vero cells, supernatant; captured on plates by mAb31
- PROTOCOL TEXT: ELISA; whole virus ELISA: SARS-CoV-2 virus captured on plates coated with mouse anti-spike mAb31, serial dilutions of IgG or Fab, ALP anti-human IgG (Fab-specific); Kd = concentration at half-maximal binding by nonlinear regression
- RUN PARAMETERS: one partner purified
READOUT KIND: Kd
The reply should consist of the numeric value with the unit placed after it.

Exercise: Endpoint output: Kd of Fab 159 (Fab, V domains shown, also called 159 Fab) VH: EVQLVESGGGVVQPGRSLRLSCAASGFTFSSYGMHWVRQAPGKGLEWVALISYDGGNRYYADSVKGRFTISRDNSKNTLYLQMNRLRAEDTAMYYCAKDRDDGWDWYYFMDVWGKGTTVTVSS VL: DIQLTQSPGTLSLSPGERATLSCRASQSISGNYLAWYQHKPGQAPRLLIYGASTRATGIPDRFSGSGSGTDFTLTISRLEPEDFAVYYCQQYGSSYTFGQGTKVEIK . Value?
Solution: 0.29 nM

Exercise: Next binder: mAb 158 (IgG) (antibody, V domains shown, IgG1) VH: EVQLLESGGDLIQPGGSLRLSCAASGVTVSSNYMSWVRQAPGKGLEWVSIIYPGGSTFYADSVKGRFTISRDNSKNTLYLQMHSLRAEDTAVYYCARDLGSGDMDVWGKGTTVTVSS VL: DIVMTQSPSFLSASVGDRVTITCRASQGISSYLAWYQQKPGKAPKLLIQAASTLQSGVPSRFSGSGSGTEFTLTISSLQPEDFATYYCQQLNSYRYTFGQGTKVEIK
Solution: 0.5 nM

Exercise: What about this binder? mAb 150 (IgG) (antibody, V domains shown, IgG1) VH: QVQLVESGGGLIQPGGSLRLSCAASGVTVSSNYMSWVRQAPGKGLEWVSIIYSGGTTYYADSVKGRFTISRDSSMNTLYLQMNSLRAEDTAVYYCARDLMVYGIDVWGQGTTVTVSS VL: EIVMTQSPSSLSASVGDRVTITCRASQGISSYLAWYQQKPGKAPKLLIYAASTLQSGVPSRFSGSGSGTDFTLTISSLQPEDFATYYCQQLDSYPPGYTFGQGTKVDIK
Solution: 0.24 nM

Exercise: Same read-out for mAb 159 (IgG) (antibody, V domains shown, IgG1; also called 159 (anti-spike); IgG159) VH: EVQLVESGGGVVQPGRSLRLSCAASGFTFSSYGMHWVRQAPGKGLEWVALISYDGGNRYYADSVKGRFTISRDNSKNTLYLQMNRLRAEDTAMYYCAKDRDDGWDWYYFMDVWGKGTTVTVSS VL: DIQLTQSPGTLSLSPGERATLSCRASQSISGNYLAWYQHKPGQAPRLLIYGASTRATGIPDRFSGSGSGTDFTLTISRLEPEDFAVYYCQQYGSSYTFGQGTKVEIK ?
Solution: 0.19 nM

Exercise: What do you have for Fab 158 (Fab, V domains shown) VH: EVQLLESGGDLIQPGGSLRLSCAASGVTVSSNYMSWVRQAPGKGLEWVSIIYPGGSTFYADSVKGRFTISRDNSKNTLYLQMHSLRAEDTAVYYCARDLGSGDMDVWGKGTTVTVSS VL: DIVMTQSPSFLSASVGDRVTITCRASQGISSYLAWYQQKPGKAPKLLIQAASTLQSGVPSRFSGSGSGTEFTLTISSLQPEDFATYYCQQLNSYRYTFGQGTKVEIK ?
Solution: 3.73 nM
